# Assayed System: UniProt P00533
# Sequence (P00533 25-1210): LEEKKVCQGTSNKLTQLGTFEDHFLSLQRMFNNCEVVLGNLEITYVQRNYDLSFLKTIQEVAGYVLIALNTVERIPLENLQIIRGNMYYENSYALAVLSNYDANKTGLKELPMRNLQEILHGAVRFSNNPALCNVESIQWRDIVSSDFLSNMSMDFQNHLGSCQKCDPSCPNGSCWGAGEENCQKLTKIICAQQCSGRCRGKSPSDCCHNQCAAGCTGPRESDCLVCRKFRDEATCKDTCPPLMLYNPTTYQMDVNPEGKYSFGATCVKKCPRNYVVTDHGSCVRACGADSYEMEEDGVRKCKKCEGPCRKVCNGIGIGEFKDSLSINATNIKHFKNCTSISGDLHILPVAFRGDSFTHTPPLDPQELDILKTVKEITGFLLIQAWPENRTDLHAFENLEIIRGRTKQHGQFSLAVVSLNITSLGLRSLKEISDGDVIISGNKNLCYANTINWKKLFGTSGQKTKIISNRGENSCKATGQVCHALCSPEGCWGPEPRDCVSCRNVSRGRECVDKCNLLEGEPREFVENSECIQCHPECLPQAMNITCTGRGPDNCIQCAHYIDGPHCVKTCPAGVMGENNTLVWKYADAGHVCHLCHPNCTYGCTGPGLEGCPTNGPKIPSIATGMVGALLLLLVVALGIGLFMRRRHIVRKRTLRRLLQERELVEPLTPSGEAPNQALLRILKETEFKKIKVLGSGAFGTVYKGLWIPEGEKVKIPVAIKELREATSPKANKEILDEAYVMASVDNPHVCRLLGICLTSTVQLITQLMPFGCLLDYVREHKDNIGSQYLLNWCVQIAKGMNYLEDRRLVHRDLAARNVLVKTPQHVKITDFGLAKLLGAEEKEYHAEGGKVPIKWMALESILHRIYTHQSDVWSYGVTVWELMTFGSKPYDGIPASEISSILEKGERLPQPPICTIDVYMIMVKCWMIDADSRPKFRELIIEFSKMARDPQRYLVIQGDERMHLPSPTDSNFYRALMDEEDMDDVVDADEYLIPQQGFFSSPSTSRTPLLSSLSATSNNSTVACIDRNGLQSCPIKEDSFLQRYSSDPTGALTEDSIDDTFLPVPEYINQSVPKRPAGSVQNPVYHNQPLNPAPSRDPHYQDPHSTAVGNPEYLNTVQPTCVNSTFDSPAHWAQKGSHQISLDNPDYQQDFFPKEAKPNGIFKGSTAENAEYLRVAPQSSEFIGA
# Experiment: Biochemical EGFR kinase inhibition assay (Lance Ultra TR-FRET), wildtype
# Details: ATP at Km; read-out: IC50 WT (nM), Km ATP
Structures can show the parent of a compound that is named as a salt.
Experimental Endpoint: IC50 (nM)

CC1(CO)CCN(c2cc(Nc3ccnc(-c4cnn(S(=O)(=O)C5CC5)c4)n3)ncc2C#Cc2cccc(C(=O)N3CCOCC3)n2)CC1    7.6

A: CN(C)CC1(F)CCN(c2cc(Nc3ccnc(-c4cnn(S(=O)(=O)C5CC5)c4)n3)ncc2C#Cc2cnn(C)c2)CC1 [Example 293, formate]
B: CN(C)C[C@H]1CC[C@@H](Nc2cc(Nc3ccnc(-c4cnn(S(=O)(=O)C5CC5)c4)n3)ncc2C#Cc2cnn(CC3CC3)c2)CC1
Select the item whose IC50 value is smaller, choosing between A and B . Answer by stating the label of the chosen item.
A

Values from patent US11981658B2
